All values here come from paper PMC11475664.

compounds and their reported IC50
- Test system: HepG2 cells
- Assay Summary: Cytotoxicity assay (MTT, 72 h) on HepG2
- Assay type: cell-based
- Condition Details: Homo sapiens; liver cancer cell line HepG2, MTT, 72 h, Table S2; read-out: HepG2 IC50
- Text: Table S2. Cytotoxicity of compounds 1-6, 11, 1a-1e, and 6a […] The method used followed that reported by Nguyen et al. (2022). […] The absorbance of samples was read at 570 nm by the ELISA Reader (BioTek, USA). […] Where, ASample: Absorbance of sample, ADMSO: Absorbance of negative control, AB1: Absorbance of blank of sample, AB2: Absorbance of blank of DMSO. […]

INSERT INTO results (compound, measurement_target, quantity_measured, assay_result) VALUES
  ('COc1cc(C)c2c(c1C=O)Oc1c(c(C)c(O)c3c1C(O)OC3=O)OC2=O (stereo not drawn) [Compound 3, stictic acid]', 'HepG2 cells', 'IC50', '> 100 µg/mL'),
  ('Cc1cc(O)c(C=O)c2c1C(=O)Oc1c(C)c(O)c3c(c1O2)C(O)OC3=O (stereo not drawn) [Compound 6, norstictic acid]', 'HepG2 cells', 'IC50', '> 100 µg/mL');

Q: Query (compound): Cc1c(Br)c(O)c(Br)c2c1Oc1c(Br)c(O)c(Br)c(C)c1C(=O)O2 [Compound 1c] ; field requested: IC50
Result: 76.5 µg/mL

Q: Same again, this time with Cc1cc(O)c(C=O)c2c1C(=O)Oc1c(C)c(C(=O)O)c(O)c(Cc3c(O)cc(O)c(Cc4c(O)c(C(=O)O)c(C)c5c4Oc4c(C=O)c(O)cc(C)c4C(=O)O5)c3C)c1O2 [Compound 1e]
Result: > 100 µg/mL

Q: Param item: Cc1cc(O)c(/C=N/Nc2ccc(Br)cc2)c2c1C(=O)Oc1c(CO)c(O)c(C(=O)O)c(C)c1O2 [Compound 1b]
Result: > 100 µg/mL

Q: // next record COc1cc(C)c2c(c1C=O)Oc1c(C=O)c(C(=O)O)c(O)c(C)c1OC2=O [Compound 4]
Result: > 100 µg/mL
